These measurements were taken from patent US8394971B2.

MEASURED_TARGET: androgen receptor (adenovirus AdEasy+rAR in L929 cells) (Rattus norvegicus)
Construct: expressed in transfected cells
TEST_PROTOCOL: L929 Androgen Receptor Functional Assay, Adenovirus Transduction
Type: cell-based
CONDITION_CONTEXT: L929 agonist testing; 3000 nM; 3 µM
QUANTITY_NAME: % Activity (%)
Give bare numbers, in %.

Worked examples follow.
CCSCC(C)(O)c1[nH]c2cc(C(F)(F)F)c(C#N)cc2c1C (single isomer, unassigned) [Compound #233]    0
CC(O)(CSCC(F)(F)F)c1cc2cc([N+](=O)[O-])c(C(F)(F)F)cc2[nH]1 (stereo not shown) [compound 201]    2
CC(O)(CSCC(F)(F)F)c1cc2cc([N+](=O)[O-])c(C(F)(F)F)cc2[nH]1 (single isomer, unassigned) [compound 202]    1

# next compound below
**Q:** I would be grateful if you could share the reported % Activity for CCSCC(C)(O)c1cc2cc([N+](=O)[O-])c(C(F)(F)F)cc2[nH]1 (racemic) [compound 142] .
**A:** 0

###

MEASURED_TARGET: androgen receptor (adenovirus AdEasy+rAR in COS-7 cells) (Rattus norvegicus, UniProt P15207)
Construct: expressed in transfected cells
TEST_PROTOCOL: COS-7 Whole-Cell Androgen Receptor Binding Assay, Adenovirus Transduction
CONDITION_CONTEXT: COS binding; 3000 nM unless otherwise noted
QUANTITY_NAME: inhibition at 3 µM (%)
Numbers only, in %.

Worked examples follow.
CC(O)(CSc1ccc(C(=O)O)cc1)c1cc2cc(Cl)c(C(F)(F)F)cc2[nH]1 (centres unmarked)    65
CCSCC(C)(O)c1cc2cc(Cl)c(C(F)(F)F)cc2[nH]1 (centres unmarked)    39
CC(O)(CSCc1ccccc1)c1cc2cc([N+](=O)[O-])c(C(F)(F)F)cc2[nH]1 (centres unmarked)    84
CCCS(=O)(=O)CC(C)(O)c1cc2cc([N+](=O)[O-])c(C(F)(F)F)cc2[nH]1 (centres unmarked)    90

Below are some compounds; for each one, tell me its inhibition at 3 µM.
1. CCC(O)(CS(=O)(=O)CC(F)(F)F)c1[nH]c2cc(C(F)(F)F)c([N+](=O)[O-])cc2c1Cl (centres unmarked)
2. CCSCC(O)c1cc2cc([N+](=O)[O-])c(C(F)(F)F)cc2[nH]1 (centres unmarked)
3. COc1ccc(SCC(C)(O)c2cc3cc(Cl)c(C(F)(F)F)cc3[nH]2)cc1 (centres unmarked)
4. CSCC(C)(O)c1cc2cc(Cl)c(C(F)(F)F)cc2[nH]1 (centres unmarked)

**A:**
1: 82; 2: 62; 3: 84; 4: 98

###

What % Activity was measured for each of the following?
MEASURED_TARGET: androgen receptor (adenovirus AdEasy+rAR in L929 cells) (Rattus norvegicus)
Construct: expressed in transfected cells
TEST_PROTOCOL: L929 Androgen Receptor Functional Assay, Adenovirus Transduction
Type: cell-based
CONDITION_CONTEXT: L929 agonist testing; 3000 nM
Remember to put the unit after the number in your answer.

Below are some compounds; for each one, tell me its % Activity.
1. CC(O)(CS(C)(=O)=O)c1cc2cc([N+](=O)[O-])c(C(F)(F)F)cc2[nH]1 (stereo not shown) [compound 148]
2. CCSCC(C)(O)c1cc2cc(C#N)c(C(F)(F)F)cc2[nH]1 (stereo not shown) [Compound #218]
3. CC(O)(CS(=O)(=O)Cc1ccccc1)c1cc2cc([N+](=O)[O-])c(C(F)(F)F)cc2[nH]1 (racemic) [compound 162]

**A:**
1. 0%
2. 0%
3. 2%

**Q:** I would be grateful if you could share the reported % Activity for CC(O)(CSCc1ccccc1)c1cc2cc([N+](=O)[O-])c(C(F)(F)F)cc2[nH]1 (stereo not shown) [compound 160] .
**A:** 1%

###

MEASURED_TARGET: androgen receptor LBD (Panvera) (Rattus norvegicus, UniProt P15207)
Construct: 5 pmol androgen receptor LBD (Panvera); purchased Panvera
Sequence (P15207 651-882 limits assumed): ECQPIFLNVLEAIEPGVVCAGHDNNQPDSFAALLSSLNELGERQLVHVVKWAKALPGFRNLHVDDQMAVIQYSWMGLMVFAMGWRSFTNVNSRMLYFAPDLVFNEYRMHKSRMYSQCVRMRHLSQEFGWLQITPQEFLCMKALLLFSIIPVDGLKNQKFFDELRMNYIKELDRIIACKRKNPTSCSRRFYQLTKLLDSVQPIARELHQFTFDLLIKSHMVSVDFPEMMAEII
TEST_PROTOCOL: Androgen Receptor Filtration Binding Assay (PANVERA)
QUANTITY_NAME: IC50 (nM)
One number for each entry, in nM.

CC(O)(CSc1ccc(Cl)cc1)c1cc2cc(C#N)c(C(F)(F)F)cc2[nH]1 (centres unmarked)    1710

# next molecule below
**Q:** I would be grateful if you could share the reported IC50 for CC(O)(COC(=O)c1ccccc1Cl)c1cc2cc([N+](=O)[O-])c(C(F)(F)F)cc2[nH]1 (centres unmarked) .
**A:** 465

###

MEASURED_TARGET: androgen receptor (adenovirus AdEasy+rAR in L929 cells) (Rattus norvegicus)
Construct: expressed in transfected cells
TEST_PROTOCOL: L929 Androgen Receptor Functional Assay, Adenovirus Transduction
Type: cell-based
CONDITION_CONTEXT: L929 antagonist testing with R1881; 3000 nM
What % Inhibition was measured for each of the following?
One number for each entry, in %.

Worked examples follow.
COc1ccc(S(=O)(=O)CC(C)(O)c2cc3cc(Cl)c(C(F)(F)F)cc3[nH]2)cc1 (racemic)    −8
CSCCC(C)(O)c1cc2cc([N+](=O)[O-])c(C(F)(F)F)cc2[nH]1 (racemic)    75
CCSCC(C)(O)c1cc2cc(Cl)ccc2n1S(C)(=O)=O (racemic)    7

# next molecule below
**Q:** I would be grateful if you could share the reported % Inhibition for CC(C)CSCC(C)(O)c1cc2cc([N+](=O)[O-])c(C(F)(F)F)cc2[nH]1 (racemic) .
**A:** 67

###

MEASURED_TARGET: androgen receptor (adenovirus AdEasy+rAR in COS-7 cells) (Rattus norvegicus, UniProt P15207)
Construct: expressed in transfected cells
TEST_PROTOCOL: COS-7 Whole-Cell Androgen Receptor Binding Assay, Adenovirus Transduction
CONDITION_CONTEXT: COS binding; 3000 nM unless otherwise noted
QUANTITY_NAME: inhibition at 3 µM (%)
Give bare numbers, in %.

Worked examples follow.
CC(O)(CSc1ccc([N+](=O)[O-])cc1)c1cc2cc(Cl)c(C(F)(F)F)cc2[nH]1 (stereo not drawn)    66
CCC(O)(CS(=O)(=O)CC(F)(F)F)c1cc2cc([N+](=O)[O-])c(C(F)(F)F)cc2[nH]1 (stereo not drawn)    65
CC(O)(CS(C)(=O)=O)c1cc2cc(Cl)c(C(F)(F)F)cc2[nH]1 (stereo not drawn)    78
CC(O)(CSc1ccc(C(=O)O)cc1)c1cc2cc(Cl)c(C(F)(F)F)cc2n1S(C)(=O)=O (stereo not drawn)    8.7
CCS(=O)(=O)C[C@](C)(O)c1cc2cc([N+](=O)[O-])c(C(F)(F)F)cc2[nH]1    42

# next compound below
**Q:** I would be grateful if you could share the reported inhibition at 3 µM for CCCSCC(C)(O)c1cc2cc([N+](=O)[O-])c(C(F)(F)F)cc2[nH]1 (stereo not drawn) .
**A:** 60

###

MEASURED_TARGET: androgen receptor (adenovirus AdEasy+rAR in COS-7 cells) (Rattus norvegicus, UniProt P15207)
Construct: expressed in transfected cells
TEST_PROTOCOL: COS-7 Whole-Cell Androgen Receptor Binding Assay, Adenovirus Transduction
CONDITION_CONTEXT: COS binding; read-out: IC50
QUANTITY_NAME: IC50

Worked examples follow.
CC[S+]([O-])CC(C)(O)c1[nH]c2cc(C(F)(F)F)c(C#N)cc2c1C (stereo not drawn) [compound 252]    > 3 µM
CC(C)CSCC(C)(O)c1cc2cc([N+](=O)[O-])c(C(F)(F)F)cc2[nH]1 (racemic) [compound 170]    > 3 µM

# next compound below
**Q:** I would be grateful if you could share the reported IC50 for CSCCC(C)(O)c1cc2cc([N+](=O)[O-])c(C(F)(F)F)cc2[nH]1 (racemic) [compound 47] .
**A:** > 1 µM

###

MEASURED_TARGET: androgen receptor (adenovirus AdEasy+rAR in COS-7 cells) (Rattus norvegicus, UniProt P15207)
Construct: expressed in transfected cells
TEST_PROTOCOL: COS-7 Whole-Cell Androgen Receptor Binding Assay, Adenovirus Transduction
CONDITION_CONTEXT: COS binding; 3000 nM unless otherwise noted
QUANTITY_NAME: inhibition at 3 µM (%)
Answers are plain numbers, in %.

CSCC(C)(O)c1cc2cc(C#N)c(C(F)(F)F)cc2[nH]1 (stereo not shown)    4.8
CCSCC(C)(O)c1cc2cc(F)c(C(F)(F)F)cc2[nH]1 (stereo not shown)    90

Below are some compounds; for each one, tell me its inhibition at 3 µM.
1. CC[S+]([O-])C[C@](C)(O)c1cc2cc([N+](=O)[O-])c(C(F)(F)F)cc2[nH]1 (stereo in doubt)
2. CC(O)(CSCC(F)(F)F)c1cc2cc(F)c(C(F)(F)F)cc2[nH]1 (stereo not shown)

**A:**
1. 35
2. 100
